So I've got a bunch of binders here, and I need their Kd values.
# System: IL-23 (human, p19/p40 heterodimer) (Homo sapiens, UniProt Q9NPF7;P29460 SEQ:20-189,SEQ:23-328)
# Sequence (Q9NPF7 20-189, chain 1 of 2): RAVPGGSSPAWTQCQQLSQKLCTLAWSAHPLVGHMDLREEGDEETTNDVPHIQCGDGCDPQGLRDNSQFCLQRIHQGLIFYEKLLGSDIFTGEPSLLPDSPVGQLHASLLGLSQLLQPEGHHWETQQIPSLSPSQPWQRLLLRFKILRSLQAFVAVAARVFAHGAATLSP
# Sequence (P29460 23-328, chain 2 of 2): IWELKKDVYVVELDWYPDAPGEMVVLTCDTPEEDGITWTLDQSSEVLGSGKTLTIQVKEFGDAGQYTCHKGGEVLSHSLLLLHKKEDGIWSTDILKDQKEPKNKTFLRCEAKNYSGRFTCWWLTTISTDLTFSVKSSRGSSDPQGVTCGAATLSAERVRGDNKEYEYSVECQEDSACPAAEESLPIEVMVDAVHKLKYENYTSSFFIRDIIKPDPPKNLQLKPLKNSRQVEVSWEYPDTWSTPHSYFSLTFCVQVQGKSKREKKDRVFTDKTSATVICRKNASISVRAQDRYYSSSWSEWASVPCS
# Assay procedure: filter; SHMCK, tRNA
# Settings: tags: R&D Systems, carrier free
Kindly answer with a numeric value in nM, unit omitted.

Challenge: # lookup: Kd of AMX91-B5 (ssRNA, 2'-F C,U) RNA: GGGAAAAGCGAAUCAUACACAAGACAGUGUAUGAGGAAGAUUACUUCCAUUCCUGAGCGGUUUUCGCUCCGCCAGAGACCAACCGAGAA
Response given: 148

Challenge: Would you kindly repeat that for AMX91-G7 (ssRNA, 2'-F C,U) RNA: GGGAAAAGCGAAUCAUACACAAGACAUGACUGCAUGCUUCGGGAGUAUCUCGGUCCCGACGUUCGCUCCGCCAGAGACCAACCGAGAA ?
Response given: 63.6

Challenge: Record: AMX91-G9 (ssRNA, 2'-F C,U) RNA: GGGAAAAGCGAAUCAUACACAAGAAUUGUGCUUACAACUUUCGUUGUACCGACGUGUCAGUUAUGCUCCGCCAGAGACCAACCGAGAA
Response given: 33

Challenge: Here is the next binder: AMX84-E12 (ssRNA, 2'-F C,U) RNA: GGGAAAAGCGAAUCAUACACAAGAAGUUUUUGUGCUCUGAGUACUCAGCGUCCGUAAGGGAUAUGCUCCGCCAGAGACCAACCGAGAA
Response given: 27.8

Challenge: Item: AMX91-H8 (ssRNA, 2'-F C,U) RNA: GGGAAAAGCGAAUCAUACACAAGAACGCAUAGUCGGAUUUACCGAUCAUUCUGUGCCUUCGUGACGCUCCGCCAGAGACCAACCGAGAA
Response given: 16.6

Challenge: Now consider AMX86-A7 (ssRNA, 2'-F C,U) RNA: GGGAAAAGCGAAUCAUACACAAGAUCUCUUUGGCCGACGCAACAAUGCUCUUUUCCGACCUUGCGCUCCGCCAGAGACCAACCGAGAA and answer again.
Response given: 57.7

Challenge: Please give the result for AMX86-E10 (ssRNA, 2'-F C,U) RNA: GGGAAAAGCGAAUCAUACACAAGAUUGUCUCGGAUUGGUCACUCCCAUUUUUGUUCGCUUAACGGCUCCGCCAGAGACCAACCGAGAA too.
Response given: 218

Challenge: // repeat for AMX91-A6 (ssRNA, 2'-F C,U) RNA: GGGAAAAGCGAAUCAUACACAAGAUUGGCAAUGUGACCUUCAACCCUUUUCCCGAUGAACAGUGGCUCCGCCAGAGACCAACCGAGAA and report
Response given: 60.3

Challenge: Would you kindly repeat that for AMX84-G11 (ssRNA, 2'-F C,U) RNA: GGGAAAAGCGAAUCAUACACAAGAGUGCUUCGUAUGUUGAAUACGACGUUCGCAGGACGAAUAUGCUCCGCCAGAGACCAACCGAGAA ?
Response given: 291
